The origin of these recorded values is ChEMBL document CHEMBL3407472.

Listed compounds paired with reported Vd
# protocol_summary: Volume of distribution at steady state in dog at 5 mg/kg, po and 2 mg/kg, iv
# Type: ADME, organism-based, Canis lupus familiaris
# condition_summary: in vivo, read-out: Vdss
API: value field is a number in L/kg; no unit string.

Please review the entries below; each comes with its answer.
>  <chemical_smiles>
CCOc1nc(NC(=O)C2(NC(=O)c3ccc4c(c3)c(C)c(-c3ccc(F)cn3)n4C3CCCCC3)CCC2)ccc1/C=C/C(=O)O

>  <unit_label>
L/kg

>  <measurement>
0.34

$$$$
>  <chemical_smiles>
CCOc1nc(NC(=O)C2(NC(=O)c3ccc4c(C5CCCC5)c(-c5ccc(F)cn5)n(C)c4c3)CCC2)ccc1/C=C/C(=O)O

>  <unit_label>
L/kg

>  <measurement>
0.36

$$$$

Next item in the queue.
Kindly indicate its recorded Vd. Item: CCOc1nc(NC(=O)C(C)(C)NC(=O)c2ccc3c(C4CCCC4)c(-c4ccc(F)cn4)n(C)c3c2)ccc1/C=C/C(=O)O
0.48

----------
# protocol_summary: Plasma concentration in rat at 2 mg/kg, po each in 0.5% Methylcellulose and 0.3% Tween-80 and 1% N-methylpyrrolidone after 2 hrs
# Type: ADME, organism-based
# Design: dose 2 mg/kg, route oral
readout_type: concentration at 2 h
Quick note: unit goes after the number.

Specify reported concentration at 2 h for the molecule shown: CCOc1nc(NC(=O)C(C)(C)NC(=O)c2ccc3c(C4CCCC4)c(-c4ccc(Cl)cn4)n(C)c3c2)cnc1/C=C/C(=O)O
0.66 µM

Determine from records and report concentration at 2 h for CCOc1nc(NC(=O)C(C)(C)NC(=O)c2ccc3c(C4CCCC4)c(-c4cncnc4)n(C)c3c2)ccc1/C=C/C(=O)O
0.1 µM

Tell me concentration at 2 h reported for CCOc1nc(NC(=O)C2(NC(=O)c3ccc4c(C5CCCC5)c(-c5cnccn5)n(C)c4c3)CCCC2)cnc1/C=C/C(=O)O
0.1 µM

Retrieve concentration at 2 h measured for CCOc1nc(NC(=O)C(C)(C)NC(=O)c2ccc3c(c2)c(C)c(-c2ccc(F)cn2)n3C2CCCCC2)cnc1/C=C/C(=O)O and print it.
0.1 µM

Supply concentration at 2 h value. Item: CCOc1nc(NC(=O)C2(NC(=O)c3ccc4c(C5CCCC5)c(-c5ccccn5)n(C)c4c3)CCC2)cnc1/C=C/C(=O)O
0.2 µM

----------
Documented Cmax across a set of compounds
# protocol_summary: Cmax in rat at 2 mg/kg, po each in 0.5% Methylcellulose and 0.3% Tween-80 and 1% N-methylpyrrolidone
# Assay type: ADME, organism-based
# Parameters: dose 2 mg/kg, route oral
# condition_summary: in vivo
Write down the numeric answer in nM and omit the unit.

Recorded results for 2 compounds are shown here.
>  <chemical_smiles>
CCOc1nc(NC(=O)C(C)(C)NC(=O)c2ccc3c(C4CCCC4)c(-c4ccc(Cl)cn4)n(C)c3c2)cnc1/C=C/C(=O)O

>  <Cmax [nM]>
660

$$$$
>  <chemical_smiles>
CCOc1nc(NC(=O)C(C)(C)NC(=O)c2ccc3c(C4CCCC4)c(-c4ccc(F)cn4)n(C)c3c2)ccc1/C=C/C(=O)O

>  <Cmax [nM]>
3600

$$$$

Now examine the next entry.
For the compound CCOc1nc(NC(=O)C(C)(C)NC(=O)c2ccc3c(C4CCCC4)c(-c4ncc(Cl)cn4)n(C)c3c2)cnc1/C=C/C(=O)O , report Cmax.
900
